The origin of these recorded values is patent US20200405852A1.

- SYSTEM_TESTED: T1, activated human complement C1s (human, UniProt P09871 16-688)
- T1 construct: also called aC1s; active C1s
- T1 sequence: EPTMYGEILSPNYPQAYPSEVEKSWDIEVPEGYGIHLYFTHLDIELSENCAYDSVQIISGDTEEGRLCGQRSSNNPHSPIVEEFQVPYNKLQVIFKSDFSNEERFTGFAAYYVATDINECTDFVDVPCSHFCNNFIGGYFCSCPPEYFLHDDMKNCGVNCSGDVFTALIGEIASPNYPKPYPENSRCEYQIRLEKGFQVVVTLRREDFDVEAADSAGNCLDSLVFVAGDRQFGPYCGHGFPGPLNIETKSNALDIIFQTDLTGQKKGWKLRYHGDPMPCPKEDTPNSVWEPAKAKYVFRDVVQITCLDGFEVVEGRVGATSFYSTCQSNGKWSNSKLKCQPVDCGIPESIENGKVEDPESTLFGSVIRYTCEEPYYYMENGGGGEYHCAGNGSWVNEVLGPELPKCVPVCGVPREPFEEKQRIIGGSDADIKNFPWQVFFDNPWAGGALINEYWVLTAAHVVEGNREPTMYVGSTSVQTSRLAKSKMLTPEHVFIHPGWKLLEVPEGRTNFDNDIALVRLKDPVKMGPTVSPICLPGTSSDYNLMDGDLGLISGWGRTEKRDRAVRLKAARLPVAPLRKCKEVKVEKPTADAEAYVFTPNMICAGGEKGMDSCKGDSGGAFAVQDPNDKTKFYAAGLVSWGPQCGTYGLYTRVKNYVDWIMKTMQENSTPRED
- TEST_DETAILS: kinetic characterization of binding to active human C1s; instrument not stated
Recorded kon values for a group of binders are listed next.
METRIC_NAME: kon (M⁻¹ s⁻¹)

1) humanized TNT005 variant VH variant 2+Vk variant 5 (antibody, V domains shown, also called VH variant 2 + VL variant 5) VH: EVQLVQSGAEVKKPGASVKLSCTASGFNIKDDYIHWVKQAPGQGLEWIGRIDPADGHTKYAPKFQVKATITADTSTNTAYLELSSLRSEDTAVYYCARYGYGREVFDYWGQGTTVTVSS VL: DIVLTQSPDSLAVSLGERATISCKASQSVDYDGDSYMNWYQQKPGQPPKLLIYDASNLESGIPARFSGSGSGTDFTLTISSLEPEDFAVYYCQQSNEDPWTFGGGTKVEIK
798000
2) humanized TNT005 variant VH variant 1+Vk variant 1 (antibody, V domains shown, also called VH variant 1 + VL variant 1) VH: EVQLVQSGAELKKPGASVKLSCTASGFNIKDDYIHWVKQAPGQGLEWIGRIDPADGHTKYAPKFQVKATITADTSTNTAYLQLSSLTSEDTAVYYCARYGYGREVFDYWGQGTTVTVSS VL: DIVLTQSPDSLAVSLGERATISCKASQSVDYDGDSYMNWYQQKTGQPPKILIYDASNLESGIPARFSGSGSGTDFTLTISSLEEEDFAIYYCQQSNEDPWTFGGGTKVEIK
864000
3) humanized TNT005 variant VH variant 2+Vk variant 1 (antibody, V domains shown, also called VH variant 2 + VL variant 1) VH: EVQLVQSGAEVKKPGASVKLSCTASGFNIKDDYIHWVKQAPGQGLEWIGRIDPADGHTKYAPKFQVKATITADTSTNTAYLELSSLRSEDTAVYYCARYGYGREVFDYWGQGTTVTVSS VL: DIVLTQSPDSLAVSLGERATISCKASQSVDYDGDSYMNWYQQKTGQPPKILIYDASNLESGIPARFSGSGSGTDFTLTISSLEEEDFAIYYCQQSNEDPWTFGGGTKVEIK
829000
4) humanized TNT005 variant VH variant 2+Vk variant 2 (antibody, V domains shown, also called VH variant 2 + VL variant 2) VH: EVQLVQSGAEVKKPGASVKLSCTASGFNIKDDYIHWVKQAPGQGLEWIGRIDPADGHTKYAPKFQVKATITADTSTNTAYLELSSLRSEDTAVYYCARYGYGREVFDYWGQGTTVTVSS VL: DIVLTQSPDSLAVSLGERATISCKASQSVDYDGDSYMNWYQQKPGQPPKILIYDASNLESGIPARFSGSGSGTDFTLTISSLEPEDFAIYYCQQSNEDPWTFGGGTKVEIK
835000
5) humanized TNT005 variant VH variant 5+Vk variant 1 (antibody, V domains shown, also called VH variant 5 + VL variant 1) VH: QVQLVQSGAEVKKPGASVKVSCAASGFNIKDDYIHWVRQAPGQGLEWIGRIDPADGHTKYAPKFQVKVTITADTSTSTAYMELSSLRSEDTAVYYCARYGYGREVFDYWGQGTTVTVSS VL: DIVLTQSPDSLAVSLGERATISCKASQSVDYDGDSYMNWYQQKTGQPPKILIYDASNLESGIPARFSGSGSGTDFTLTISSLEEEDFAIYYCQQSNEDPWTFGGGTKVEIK
1.03e+06
